# System: CETP protein
# PROTOCOL: Plasma CETP protein by ELISA in huCETP transgenic mice (Example 5)
# Assay type: in vivo, human
# TEST CONTEXT: normal chow, 50 mg/kg i.p. twice per week for 6 weeks, compared to PBS control
e = 2'-O-(2-methoxyethyl) (MOE); d = 2'-deoxy (DNA)
MEASURED ATTRIBUTE: Percent inhibition of plasma CETP protein levels (%)
Answers are plain numbers, in %.

1) ISIS 349517: 5-10-5 MOE gapmer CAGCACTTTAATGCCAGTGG (sugars from the 5' end e5 d10 e5, backbone and methylation of C not given here)	86
2) ISIS 349512: 5-10-5 MOE gapmer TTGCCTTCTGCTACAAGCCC (sugars from the 5' end e5 d10 e5, backbone and methylation of C not given here)	76
3) ISIS 349515: 5-10-5 MOE gapmer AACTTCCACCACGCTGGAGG (sugars from the 5' end e5 d10 e5, backbone and methylation of C not given here)	40

Sure, the documented Percent inhibition of plasma CETP protein levels for ISIS 349511: 5-10-5 MOE gapmer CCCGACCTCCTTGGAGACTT (sugars from the 5' end e5 d10 e5, backbone and methylation of C not given here) is 75

====

# Tested on: human CETP mRNA
# PROTOCOL: Antisense inhibition of human CETP mRNA in SW872 liposarcoma cells (Example 1)
# Format: cell-based
# TEST CONTEXT: 150 nM antisense oligonucleotide, lipofectin, ~24 hours, relative to untreated control cells
Strand notation (5' to 3'): a small letter for the sugar, then the base; units joined by * are phosphorothioate-linked, units joined directly phosphodiester-linked; [ ] holds rarer units or linkages, { } end groups; capitals alone tell only the bases. e = 2'-O-(2-methoxyethyl) (MOE); [5mC] = 5-methylcytosine; d = 2'-deoxy (DNA)
Hi there, I'd appreciate the recorded % inhibition for every entry that follows.
Numbers only, in %.

Record excerpt, results attached:
1) ISIS 349462: 5-10-5 MOE gapmer ATCTGGATGTTGTGCAACCC (eA*eT*e[5mC]*eT*eG*dG*dA*dT*dG*dT*dT*dG*dT*dG*d[5mC]*eA*eA*e[5mC]*e[5mC]*e[5mC])	76
2) ISIS 349495: 5-10-5 MOE gapmer AGGAATTTCACCATCACTGA (eA*eG*eG*eA*eA*dT*dT*dT*d[5mC]*dA*d[5mC]*d[5mC]*dA*dT*d[5mC]*eA*e[5mC]*eT*eG*eA)	58
3) ISIS 349466: 5-10-5 MOE gapmer CCACAGACACGTTCTGAATG (e[5mC]*e[5mC]*eA*e[5mC]*eA*dG*dA*d[5mC]*dA*d[5mC]*dG*dT*dT*d[5mC]*dT*eG*eA*eA*eT*eG)	15
4) ISIS 349465: 5-10-5 MOE gapmer GAGACATCAATGGACTTGGC (eG*eA*eG*eA*e[5mC]*dA*dT*d[5mC]*dA*dA*dT*dG*dG*dA*d[5mC]*eT*eT*eG*eG*e[5mC])	87
5) ISIS 349503: 5-10-5 MOE gapmer GCGGTGATCATTGACTGCAG (eG*e[5mC]*eG*eG*eT*dG*dA*dT*d[5mC]*dA*dT*dT*dG*dA*d[5mC]*eT*eG*e[5mC]*eA*eG)	81

# per-item lookup of % inhibition; items listed below
1. ISIS 349502: 5-10-5 MOE gapmer GAAGCTCTGGATGGACTCGG (eG*eA*eA*eG*e[5mC]*dT*d[5mC]*dT*dG*dG*dA*dT*dG*dG*dA*e[5mC]*eT*e[5mC]*eG*eG)
2. ISIS 349449: 5-10-5 MOE gapmer CGAGCCGTTCAGCCTGGAGC (e[5mC]*eG*eA*eG*e[5mC]*d[5mC]*dG*dT*dT*d[5mC]*dA*dG*d[5mC]*d[5mC]*dT*eG*eG*eA*eG*e[5mC])
3. ISIS 349483: 5-10-5 MOE gapmer CTCTGAGACATTCTTGTAGA (e[5mC]*eT*e[5mC]*eT*eG*dA*dG*dA*d[5mC]*dA*dT*dT*d[5mC]*dT*dT*eG*eT*eA*eG*eA)
4. ISIS 349486: 5-10-5 MOE gapmer GAAAGCTACCTTGGCCAGCG (eG*eA*eA*eA*eG*d[5mC]*dT*dA*d[5mC]*d[5mC]*dT*dT*dG*dG*d[5mC]*e[5mC]*eA*eG*e[5mC]*eG)
5. ISIS 349488: 5-10-5 MOE gapmer GCACTGCCTTGAACTCGTCT (eG*e[5mC]*eA*e[5mC]*eT*dG*d[5mC]*d[5mC]*dT*dT*dG*dA*dA*d[5mC]*dT*e[5mC]*eG*eT*e[5mC]*eT)
6. ISIS 349472: 5-10-5 MOE gapmer GCACTCTACCAGAGTCACAG (eG*e[5mC]*eA*e[5mC]*eT*d[5mC]*dT*dA*d[5mC]*d[5mC]*dA*dG*dA*dG*dT*e[5mC]*eA*e[5mC]*eA*eG)

[A]
1. 43
2. 28
3. 85
4. 55
5. 47
6. 39
